Tested on: ISC-enriched organoids
assay-procedure: Primary screen, 384-well 2.5-D organoid differentiation (ENR+CD, 6 days, Target Selective Inhibitor Library, vs whole-plate median): ATP (CellTiter-Glo 3D, CTG)
reported-conditions: strictly standardized mean difference; primary screen; 3rd of the 4 dose lines of the treatment (dose not given)
Please enter True where SSMD.CTG is greater than or equal to -0.2, and False where it is lower.

>>> print(df.to_string())
                                  compound       system_under_test  assigned_label
0  O=C(O)CCc1ccc(NCc2cccc(Oc3ccccc3)c2)cc1  ISC-enriched organoids            True

Determine whether this compound has SSMD.CTG no lower than -0.2: O=C(C[S+]([O-])Cc1ccco1)NC/C=C\COc1cc(CN2CCCCC2)ccn1 (centres unmarked)
True

Also CCOC(=O)N1CCC(=C2c3ccc(Cl)cc3CCc3cccnc32)CC1 , if possible.
False

Also Nc1nc(CC(=O)Nc2ccc(CCNC[C@H](O)c3ccccc3)cc2)cs1 , if possible.
True

Also Nc1cccc2c1CN(C1CCC(=O)NC1=O)C2=O (centres unmarked) [Lenalidomide (CC-5013)] , if possible.
False

Also O=C(c1cn(Cc2cncn2Cc2ccc(Br)cc2)cc1-c1cccc2ccccc12)N1CCOCC1 , if possible.
True

Also Cc1noc(-c2ccc(CSCCC(=O)O)cc2)c1NC(=O)OC(C)c1ccccc1Cl (centres unmarked) , if possible.
False

Also O=C(O)c1ccc(Nc2ncc3c(n2)-c2ccc(Cl)cc2C(c2c(F)cccc2F)=NC3)cc1 , if possible.
False

---

Kindly state Dose.FC.LYZ.NS for each of the entries shown.
Tested on: ISC-enriched organoids
assay-procedure: Primary screen, 384-well 2.5-D organoid differentiation (ENR+CD, 6 days): basal lysozyme secretion (LYZ.NS)
Format: cell-based, murine
reported-conditions: Dose 0.08 uM; ENR+CD, 6 days; FC vs plate median
Source text: High-throughput screening.
Numbers only, in log 2 fold change.

In [3]: df
Out[3]:
                                   molecule       system_under_test  measurement_label        value_units  reading
0  CC1(COc2ccc3c(c2)ncn3-c2ccc3cccc(N4CCC(N)CC4)c3n2)COC1  ISC-enriched organoids     Dose.FC.LYZ.NS  log 2 fold change    0.121
1  O=C(Nc1cccc(Nc2ncc(Br)c(NCCc3cnc[nH]3)n2)c1)N1CCCC1  ISC-enriched organoids     Dose.FC.LYZ.NS  log 2 fold change    0.010
2  OC[C@H]1O[C@@H](c2ccc(Cl)c(Cc3ccc(O[C@H]4CCOC4)cc3)c2)[C@H](O)[C@@H](O)[C@@H]1O  ISC-enriched organoids     Dose.FC.LYZ.NS  log 2 fold change   −0.006
3  CS(=O)(=O)N1CCN(Cc2cc3nc(-c4cccc5[nH]ncc45)nc(N4CCOCC4)c3s2)CC1  ISC-enriched organoids     Dose.FC.LYZ.NS  log 2 fold change    0.008
4  NC(=O)C1CCCc2c1[nH]c1ccc(Cl)cc21 (centres unmarked) [EX 527 (Selisistat)]  ISC-enriched organoids     Dose.FC.LYZ.NS  log 2 fold change    0.100
5  CCOC(=O)c1cncn1[C@H](C)c1ccccc1 [Etomidate]  ISC-enriched organoids     Dose.FC.LYZ.NS  log 2 fold change   −0.008
6  COc1cccc(C=NCCN=Cc2cccc(OC)c2[O-])c1[O-].[Cl-].[Mn+3]  ISC-enriched organoids     Dose.FC.LYZ.NS  log 2 fold change    0.068
7  Cc1ccc([C@@H]2O[C@H](CO)[C@@H](O)[C@H](O)[C@H]2O)cc1Cc1ccc(-c2ccc(F)cc2)s1  ISC-enriched organoids     Dose.FC.LYZ.NS  log 2 fold change   −0.027
8  CCCCCCCCc1ccc(CCC(N)(CO)CO)cc1.Cl [Fingolimod (FTY720) HCl]  ISC-enriched organoids     Dose.FC.LYZ.NS  log 2 fold change   −0.054
9  CCC(CC)CC1(C(=O)Nc2ccccc2SC(=O)C(C)C)CCCCC1  ISC-enriched organoids     Dose.FC.LYZ.NS  log 2 fold change    0.055

Parameter requested: Dose.FC.LYZ.NS. Apply to each item below.
1. NC1(Cc2ccc(Cl)cc2)CCN(c2ncnc3[nH]ccc23)CC1 [CCT128930, reference compound]
2. CC(C)c1cc(-c2n[nH]c(=O)n2-c2ccc3c(ccn3C)c2)c(O)cc1O [Ganetespib (STA-9090)]
3. Cc1ccc2c(=O)c3cccc(CC(=O)O)c3oc2c1C
4. c1ccc(CNc2nc(NCc3ccccc3)c3ccccc3n2)cc1

1. 0.323
2. −0.141
3. −0.007
4. 0.097

---

Tested on: ISC-enriched organoids
assay-procedure: Primary screen, 384-well 2.5-D organoid differentiation (ENR+CD, 6 days): carbachol-induced lysozyme secretion (LYZ.S)
Assay type: cell-based, murine
reported-conditions: strictly standardized mean difference; primary screen; 2nd of the 4 dose lines of the treatment (dose not given)
Where a name gives a salt, the structure may show the parent alone.
The label label 1 is reserved for SSMD.LYZ.S strictly under 0.1; label 0 covers values equal to or above it.

Here are 6 molecules together with their reported answers.
>>> df
                                   molecule       system_under_test  assigned_label
0  CC(C)c1ccc(NC(=O)Cn2cnc3c2c(=O)n(C)c(=O)n3C)cc1  ISC-enriched organoids         label 0
1  CCc1c2c(nc3ccc(OC(=O)N4CCC(N5CCCCC5)CC4)cc13)-c1cc3c(c(=O)n1C2)COC(=O)[C@]3(O)CC [Irinotecan HCl Trihydrate]  ISC-enriched organoids         label 1
2            O=[N+]([O-])C=Cc1ccc2c(c1)OCO2  ISC-enriched organoids         label 0
3  CCCCc1nc(Cl)c(CO)n1Cc1ccc(-c2ccccc2-c2nnn[n-]2)cc1.[K+]  ISC-enriched organoids         label 0
4  Cc1ccc(C(=O)N(CCCN)[C@@H](c2nc3cc(Cl)ccc3c(=O)n2Cc2ccccc2)C(C)C)cc1 [Ispinesib (SB-715992)]  ISC-enriched organoids         label 1
5  Cc1noc(-c2ccc(CSCCC(=O)O)cc2)c1NC(=O)OC(C)c1ccccc1Cl (centres unmarked)  ISC-enriched organoids         label 0

For this molecule, is SSMD.LYZ.S lower than 0.1? CC12CC3CC(C)(C1)CC(N)(C3)C2 [Memantine HCl]
label 0

Also C=CCn1c(=O)c2cnc(Nc3ccc(N4CCN(C)CC4)cc3)nc2n1-c1cccc(C(C)(C)O)n1 , if possible.
label 1

---

System: ISC-enriched organoids
assay-procedure: Primary screen, 384-well 2.5-D organoid differentiation (ENR+CD, 6 days): basal lysozyme secretion (LYZ.NS)
Type: cell-based, murine
reported-conditions: Dose 0.40 uM; standard z score of FC
Kindly state Z.LYZ.NS for each of the entries shown.
One number for each entry.

As a guide, the following entries are already answered.
molecule	measurement-label	reading
FC(F)(F)c1ccc(/C=C/c2nc(COc3ccc(CCCCn4ccnn4)cc3)co2)cc1	Z.LYZ.NS	−1.687
COc1ccc(C[C@@H](C)NC[C@H](O)c2ccc(O)c(NC=O)c2)cc1.COc1ccc(C[C@@H](C)NC[C@H](O)c2ccc(O)c(NC=O)c2)cc1.O=C(O)/C=C/C(=O)O [Formoterol Hemifumarate]	Z.LYZ.NS	0.638

# input for lookup
Item C[C@H]1COC2=C1C(=O)C(=O)c1c2ccc2c1CCCC2(C)C has what recorded Z.LYZ.NS?
−1.047

---

Kindly state Dose.FC.CTG (log 2 fold change, ATP) for each of the entries shown.
Tested on: ISC-enriched organoids
assay-procedure: Primary screen, 384-well 2.5-D organoid differentiation (ENR+CD, 6 days, Target Selective Inhibitor Library, vs whole-plate median): ATP (CellTiter-Glo 3D, CTG)
reported-conditions: dose 10.00 uM; vs plate median
One number for each entry.

In [3]: df
Out[3]:
                                   compound                     measurement_label  reading
0  O=C(O[C@H]1C[C@H]2CC[C@@H](C1)[N+]21CCCC1)C(O)(c1ccccc1)c1ccccc1 [Trospium chloride]  Dose.FC.CTG (log 2 fold change, ATP)    0.148
1  COc1cc2ncnc(Nc3ccc(Cl)cc3F)c2cc1OC [ZM 306416]  Dose.FC.CTG (log 2 fold change, ATP)   −1.490
2  C[C@H](NC(=O)Cc1cc(F)cc(F)c1)C(=O)N[C@@H]1C(=O)N(C)c2ccccc2-c2ccccc21 [YO-01027]  Dose.FC.CTG (log 2 fold change, ATP)   −1.032

Item Cc1cc(-c2ccc(CC(=O)Nc3ccc(-c4cccnc4)cc3)cc2)ccn1 [Wnt-C59 (C59)] has what recorded Dose.FC.CTG (log 2 fold change, ATP)?
−0.613
